biological target: LILRA3 (human (not printed on the sheet), UniProt Q8N6C8); assay: LILR reporter cells on coated antibody, GFP positive (%)
Sequence (Q8N6C8 24-439 limits assumed): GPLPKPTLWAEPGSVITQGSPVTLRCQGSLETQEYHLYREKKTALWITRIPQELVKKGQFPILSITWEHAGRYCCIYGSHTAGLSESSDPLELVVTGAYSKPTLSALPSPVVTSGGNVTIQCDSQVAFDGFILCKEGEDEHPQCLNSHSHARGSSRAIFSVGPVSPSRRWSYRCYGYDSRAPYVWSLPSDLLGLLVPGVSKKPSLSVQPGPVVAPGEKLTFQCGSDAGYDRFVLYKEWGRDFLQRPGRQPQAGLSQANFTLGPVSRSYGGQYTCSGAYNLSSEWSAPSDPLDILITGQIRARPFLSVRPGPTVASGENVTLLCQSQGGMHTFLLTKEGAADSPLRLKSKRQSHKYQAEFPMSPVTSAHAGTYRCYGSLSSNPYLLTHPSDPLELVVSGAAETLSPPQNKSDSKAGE
Reported Metric: binding result

Binder | Result
h193 antibody No. 32 (h193-H6 / h193-K2) (antibody, V domains shown) VH: EVQLVESGGGLVQPGGSLRLSCAASGFSLSSSYWISWVRQAPGKGLEWIGSIDSGSVGITYYATSAKGRFTISRDNSKNTLYLQMNSLRAEDTAVYYCARHGDNWALDLWGQGTLVTVSS VL: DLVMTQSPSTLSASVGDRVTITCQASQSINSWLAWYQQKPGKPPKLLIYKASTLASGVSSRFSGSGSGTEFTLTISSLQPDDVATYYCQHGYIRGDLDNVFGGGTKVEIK | no binding
h193 antibody No. 31 (h193-H6 / h193-K1) (antibody, V domains shown) VH: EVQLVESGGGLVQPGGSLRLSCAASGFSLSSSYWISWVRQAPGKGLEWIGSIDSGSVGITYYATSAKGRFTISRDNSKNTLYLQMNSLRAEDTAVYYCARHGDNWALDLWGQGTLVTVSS VL: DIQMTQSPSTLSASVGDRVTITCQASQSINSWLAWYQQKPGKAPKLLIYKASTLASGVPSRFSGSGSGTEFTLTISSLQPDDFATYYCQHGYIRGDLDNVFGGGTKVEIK | no binding
h193 antibody No. 33 (h193-H6 / h193-K3) (antibody, V domains shown) VH: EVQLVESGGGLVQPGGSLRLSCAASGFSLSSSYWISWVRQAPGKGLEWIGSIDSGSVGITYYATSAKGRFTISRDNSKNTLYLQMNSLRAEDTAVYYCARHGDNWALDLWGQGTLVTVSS VL: DIQMTQSPSTLSASVGDRVTITCRASQSINSWLAWYQQKPGKAPKLLIYKASTLASGVPSRFSGSGSGTEFTLTISSLQPDDFATYYCQHGYIRGDLDNVFGGGTKVEIK | no binding

Just for reference, patent US20210371518A1 is where these values come from.
